Test system: yellow nutsedge (Cyperus esculentus)
Test: Test C pre-/postemergence greenhouse test, plant response rating 0-100
Assay type: in vivo
Conditions: Postemergence, 250 g ai/ha; scale 0 to 100
Reported metric: Plant response rating, Nutsedge, Yellow

Here are 3 compounds together with their reported answers.
CCn1cc(C(=O)c2ccccc2)c(-c2cc(Br)cc(Br)c2)n1 [Compound 38] :: 0
Fc1cccc(NN=C(c2ccccc2)c2c[nH]nc2-c2cc(Cl)cc(Cl)c2)c1 [Compound 58] :: 0
O=C(c1ccccc1)c1cn(S(=O)(=O)C(F)(F)F)nc1-c1cc(Cl)cc(Cl)c1 [Compound 2] :: 0

// field: Plant response rating, Nutsedge, Yellow; key: C=CCn1cc(C(=O)c2ccccc2)c(-c2cc(Cl)cc(Cl)c2)n1 [Compound 60] ; value = 0

// field: Plant response rating, Nutsedge, Yellow; key: CCOC(OCC)(c1cccs1)c1c[nH]nc1-c1cc(Cl)cc(Cl)c1 [Compound 27] ; value = 0

// field: Plant response rating, Nutsedge, Yellow; key: Fc1ccccc1NN=C(c1ccccc1)c1c[nH]nc1-c1cc(Cl)cc(Cl)c1 [Compound 57] ; value = 5

====

Test system: barnyardgrass (Echinochloa crus-galli)
Assay: Test A pre-/postemergence greenhouse herbicide test, visual injury rating 0-100
Type: in vivo
Details: Preemergence, 500 g ai/ha
Reported metric: Plant response rating (0 to 100 scale), Barnyardgrass

Here are 9 compounds together with their reported answers.
Cn1cc(C(=O)c2cccnc2)c(-c2cc(Cl)cc(Cl)c2)n1 :: 0
CCOC(OCC)(c1cccs1)c1c[nH]nc1-c1cc(Cl)cc(Cl)c1 :: 0
O=C(c1ccccc1)c1cn(S(=O)(=O)CCl)nc1-c1cc(Cl)cc(Cl)c1 :: 0
CCn1cc(C(=O)c2cccs2)c(-c2cc(F)cc(Cl)c2)n1 :: 0
O=C(c1ccccc1)c1cn(CC2CC2)nc1-c1cc(Cl)cc(Cl)c1 :: 0
CON=C(c1cccs1)c1c[nH]nc1-c1cc(Cl)cc(Cl)c1 :: 0
C#CCn1cc(C(=O)c2cccnc2)c(-c2cc(Cl)cc(Cl)c2)n1 :: 0
O=C(c1cncc(F)c1)c1c[nH]nc1-c1cc(F)cc(Cl)c1 :: 0
O=C(c1ccccc1)c1cn(C(=O)Cc2ccccc2)nc1-c1cc(Cl)cc(Cl)c1 :: 0

Now turn to the next compound.
Entry O=Cn1cc(C(=O)c2ccccc2)c(-c2cc(Cl)cc(Cl)c2)n1 ; assay system barnyardgrass (Echinochloa crus-galli); Plant response rating (0 to 100 scale), Barnyardgrass recorded at 0

====

Test system: giant foxtail (Setaria faberii)
Experiment: Test C pre-/postemergence greenhouse test, plant response rating 0-100
Format: in vivo
Settings: Postemergence, 250 g ai/ha; scale 0 to 100
Reported metric: Plant response rating, Foxtail, Giant
Kindly provide the number alone.

Here are 4 compounds together with their reported answers.
Clc1cc(Cl)cc(-c2n[nH]cc2C(=NNc2ccccc2Cl)c2ccccc2)c1 :: 0
Cn1cc(C(=O)c2ccccc2)c(-c2cc(Br)cc(Br)c2)n1 :: 10
ON=C(c1ccccc1)c1c[nH]nc1-c1cc(Cl)cc(Cl)c1 :: 0
Fc1ccc(NN=C(c2ccccc2)c2c[nH]nc2-c2cc(Cl)cc(Cl)c2)cc1 :: 0

Now turn to the next compound.
// field: Plant response rating, Foxtail, Giant; key: O=C(c1cncc(F)c1)c1c[nH]nc1-c1cc(Cl)cc(Cl)c1 ; value = 5

====

Test system: waterhemp (common waterhemp, Amaranthus rudis)
Assay: Test E pre-/postemergence greenhouse test, plant response rating 0-100
Format: in vivo
Details: Postemergence, 31 g ai/ha; scale 0 to 100
Reported metric: Plant response rating, Waterhemp

C=CCn1cc(C(=O)c2ccccc2)c(-c2cc(Cl)cc(Cl)c2)n1 :: 20
O=C(c1ccccc1)c1cn(S(=O)(=O)CC(F)(F)F)nc1-c1cc(Cl)cc(Cl)c1 :: 95
O=C(c1ccccc1)c1cn(S(=O)(=O)C(F)(F)F)nc1-c1cc(Cl)cc(Cl)c1 :: 90

Now turn to the next compound.
// field: Plant response rating, Waterhemp; key: Cn1cc(C(=O)c2cccs2)c(-c2cc(Cl)cc(Cl)c2)n1 ; value = 50

====

Catalogue of Plant response rating (0 to 100), Morningglory readings, one per entry.
System: morningglory (Ipomoea coccinea)
Assay: Test C pre-/postemergence greenhouse test, plant response rating 0-100
Format: in vivo
Details: Postemergence, 125 g ai/ha
Kindly provide the number alone.

Here are 5 compounds together with their reported answers.
CCOC(OCC)(c1cccs1)c1c[nH]nc1-c1cc(Cl)cc(Cl)c1 :: 0
CCn1cc(C(=O)c2ccccc2)c(-c2cc(Br)cc(Br)c2)n1 :: 5
CCn1cc(C(=NN2CCCC2)c2ccccc2)c(-c2cc(Cl)cc(Cl)c2)n1 :: 0
Fc1ccc(NN=C(c2ccccc2)c2c[nH]nc2-c2cc(Cl)cc(Cl)c2)cc1 :: 0
Fc1cccc(NN=C(c2ccccc2)c2c[nH]nc2-c2cc(Cl)cc(Cl)c2)c1 :: 0

Now turn to the next compound.
Entry O=C(c1ccccc1)c1cn(S(=O)(=O)C(F)(F)F)nc1-c1cc(Cl)cc(Cl)c1 ; assay system morningglory (Ipomoea coccinea); Plant response rating (0 to 100), Morningglory recorded at 0

====

Catalogue of Plant response rating (0 to 100), Nutsedge, Yellow readings, one per entry.
Test system: yellow nutsedge (Cyperus esculentus)
Experiment: Test C pre-/postemergence greenhouse test, plant response rating 0-100
Type: in vivo
Details: Postemergence, 125 g ai/ha
Kindly provide the number alone.

Here are 2 compounds together with their reported answers.
O=C(c1ccccc1)c1cn(S(=O)(=O)CCl)nc1-c1cc(Cl)cc(Cl)c1 :: 0
Fc1ccccc1NN=C(c1ccccc1)c1c[nH]nc1-c1cc(Cl)cc(Cl)c1 :: 0

// field: Plant response rating (0 to 100), Nutsedge, Yellow; key: CCn1cc(C(=O)c2ccccc2)c(-c2cc(Br)cc(Br)c2)n1 ; value = 0

// field: Plant response rating (0 to 100), Nutsedge, Yellow; key: CC(C)n1cc(C(=O)c2ccccc2)c(-c2cc(Cl)cc(Cl)c2)n1 ; value = 0

// field: Plant response rating (0 to 100), Nutsedge, Yellow; key: C=CCn1cc(C(=O)c2ccccc2)c(-c2cc(Cl)cc(Cl)c2)n1 ; value = 0

// field: Plant response rating (0 to 100), Nutsedge, Yellow; key: Cn1cc(C(=O)c2cccs2)c(-c2cc(Cl)cc(Cl)c2)n1 ; value = 5

// field: Plant response rating (0 to 100), Nutsedge, Yellow; key: Fc1ccc(NN=C(c2ccccc2)c2c[nH]nc2-c2cc(Cl)cc(Cl)c2)cc1 ; value = 5

====

Tested on: oilseed rape (Brassica napus)
Experiment: Test C pre-/postemergence greenhouse test, plant response rating 0-100
Assay type: in vivo
Details: Preemergence, 125 g ai/ha
Reported metric: Plant response rating, Oilseed Rape

Here are 2 compounds together with their reported answers.
COCC(=O)n1cc(C(=O)c2ccccc2)c(-c2cc(Cl)cc(Cl)c2)n1 :: 50
C#CCn1cc(C(=O)c2ccccc2)c(-c2cc(Cl)cc(Cl)c2)n1 :: 30

// field: Plant response rating, Oilseed Rape; key: Clc1cc(Cl)cc(-c2n[nH]cc2C(=NN2CCCC2)c2ccccc2)c1 ; value = 80

// field: Plant response rating, Oilseed Rape; key: O=C(c1ccccc1)c1cn(S(=O)(=O)CC(F)(F)F)nc1-c1cc(Cl)cc(Cl)c1 ; value = 80

====

Test system: pigweed (Amaranthus retroflexus)
Assay: Test C pre-/postemergence greenhouse test, plant response rating 0-100
Format: in vivo
Settings: Postemergence, 125 g ai/ha
Reported metric: Plant response rating (0 to 100), Pigweed
Kindly provide the number alone.

Here are 5 molecules together with their reported answers.
Cn1cc(C(=O)c2ccccc2)c(-c2cc(Br)cc(Br)c2)n1 :: 85
CCn1cc(C(=NN2CCCC2)c2ccccc2)c(-c2cc(Cl)cc(Cl)c2)n1 :: 80
Clc1cc(Cl)cc(-c2n[nH]cc2C(=NNc2ccccc2Cl)c2ccccc2)c1 :: 85
ON=C(c1ccccc1)c1c[nH]nc1-c1cc(Cl)cc(Cl)c1 :: 100
Fc1cccc(NN=C(c2ccccc2)c2c[nH]nc2-c2cc(Cl)cc(Cl)c2)c1 :: 100

Entry Cn1cc(C(=O)c2cccs2)c(-c2cc(Cl)cc(Cl)c2)n1 ; assay system pigweed (Amaranthus retroflexus); Plant response rating (0 to 100), Pigweed recorded at 80

Entry CC(C)n1cc(C(=O)c2ccccc2)c(-c2cc(Cl)cc(Cl)c2)n1 ; assay system pigweed (Amaranthus retroflexus); Plant response rating (0 to 100), Pigweed recorded at 60

Entry Fc1ccc(NN=C(c2ccccc2)c2c[nH]nc2-c2cc(Cl)cc(Cl)c2)cc1 ; assay system pigweed (Amaranthus retroflexus); Plant response rating (0 to 100), Pigweed recorded at 100

Entry CCn1cc(C(=O)c2cccs2)c(-c2cc(Cl)cc(Cl)c2)n1 ; assay system pigweed (Amaranthus retroflexus); Plant response rating (0 to 100), Pigweed recorded at 100
